STUDY_SYSTEM: recombinant cGAS (aa147-522) (Homo sapiens, UniProt Q8N884)
Construct: recombinant cGAS (aa147-522); His6-SUMO (N, cleaved yes)
Sequence (Q8N884 147-522): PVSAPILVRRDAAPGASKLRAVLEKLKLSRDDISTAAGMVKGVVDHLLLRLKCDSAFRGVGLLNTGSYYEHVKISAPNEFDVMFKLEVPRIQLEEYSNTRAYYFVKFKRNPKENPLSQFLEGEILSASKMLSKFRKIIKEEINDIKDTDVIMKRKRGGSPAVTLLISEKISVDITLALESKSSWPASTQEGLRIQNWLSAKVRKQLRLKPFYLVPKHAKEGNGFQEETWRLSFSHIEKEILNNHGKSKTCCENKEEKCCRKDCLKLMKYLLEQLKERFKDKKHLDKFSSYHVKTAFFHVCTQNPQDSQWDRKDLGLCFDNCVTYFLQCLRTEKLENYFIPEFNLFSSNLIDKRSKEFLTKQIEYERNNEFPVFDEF
PROCEDURE_SUMMARY: In vitro assay for inhibition of cGAS activity (ATP consumption, Kinase Glo)
EXPERIMENTAL_CONDITIONS: 37° C. 20 minutes, read-out: Activity (Inhibition of cGAS enzyme activity in vitro, IC50)
pIC50: −log10 of the molar value.
PROPERTY_LABEL: pIC50

1) CN1C(=O)S/C(=C\c2cc(OCc3cccc4cnccc34)c(O)cc2Br)C1=O [Ex173]; 5.00 to 6.30
2) CN1C(=O)S/C(=C\c2cc(OCc3cncc4ccccc34)c(O)cc2Br)C1=O [Ex176]; 5.00 to 6.30
3) O=C1NC(=O)/C(=C/c2ccnnc2)N1 [Ex15]; ≤ 5.00
4) CC(Oc1cc(/C=C2\SC(=O)N(C)C2=O)c(Br)cc1O)c1cnc(Cl)nc1 (stereo not drawn) [Ex104]; 5.00 to 6.30
5) CC(Oc1cc(/C=C2\SC(=O)N(C)C2=O)c(Br)c(F)c1O)c1cnc(Cl)nc1 (stereo not drawn) [ExA6]; ≥ 6.30
6) COc1nc(S(C)(=O)=O)ncc1COc1cc(/C=C2\SC(=O)N(C)C2=O)c(Br)cc1O [Ex220]; 5.00 to 6.30
7) CN1C(=O)S/C(=C\c2cc(OCc3ccc4ncccc4c3)c(O)cc2Br)C1=O [Ex174]; ≤ 5.00
8) CN1C(=O)S/C(=C\c2cc(Oc3cccc4cnccc34)c(O)cc2Br)C1=O [ExB25]; ≤ 5.00
9) CN1C(=O)S/C(=C\c2cc(OCc3ccnc4ccccc34)c(O)cc2Br)C1=O [Ex178]; 5.00 to 6.30

* * *

Test system: cGAS activity in THP1 cells
PROCEDURE_SUMMARY: Cellular assay: ISRE-Gaussia luciferase reporter THP1 cells transfected with ISD (Interferon Stimulatory DNA)
Assay type: cell-based
EXPERIMENTAL_CONDITIONS: Homo sapiens, THP-1; ISRE-Gaussia luciferase reporter THP1 cells transfected with 2 μg/mL ISD, 16 hours; read-out: THP1-ISD (Inhibition of cGAS activity in THP1 cells, IC50)
pIC50: −log10 of the molar value.
PROPERTY_LABEL: pIC50

1) CN1C(=O)S/C(=C\c2cc3c(Cc4cnc(N)nc4)c[nH]c3c(F)c2Br)C1=O [ExB43]; ≤ 5.00
2) O=C1/C(=C/c2cc(CC(F)(F)F)c(O)cc2Br)Sc2ncccc21 [ExB21]; 5.00 to 5.60
3) CN1C(=O)S/C(=C\c2cc(OCc3ccnc4[nH]cnc34)c(O)cc2Br)C1=O [Ex68]; ≥ 5.60
4) CNc1ncc(COc2cc(/C=C3\Sc4ncccc4C3=O)c(Br)cc2O)cn1 [Ex195]; 5.00 to 5.60
5) C[S+]([O-])c1ncc(COc2cc(/C=C3\Sc4ncccc4C3=O)c(Br)cc2O)cn1 (stereo not drawn) [Ex216]; ≥ 5.60
6) CN1C(=O)S/C(=C\c2cc(OCc3cnc(NN)nc3)c(O)cc2Br)C1=O [Ex184]; ≥ 5.60
7) CN1C(=O)S/C(=C\c2cc(OCc3cccc4[nH]ccc34)c(O)cc2Br)C1=O [Ex67]; 5.00 to 5.60
8) CN1C(=O)S/C(=C\c2cc(O/C=C/c3cnc(N)nc3)c(O)c(F)c2Br)C1=O [ExB2]; ≥ 5.60
9) COc1cc(/C=C2\Sc3ncccc3C2=O)c(Br)c(F)c1O [Ex75]; 5.00 to 5.60
